This collection of values is drawn from paper PMC6267684.

- method: Pharmacokinetics in tumor-bearing KPC mice after 25 mg/kg single or multiple dose oral gavage
- Assay type: in vivo
- experimental_context: KPC, mouse, pancreatic tumor; tumor; day 14, multiple PO doses 25 mg/kg/day
attribute_measured: Tmax (h)
The figure you give is taken to be in h; do not add the unit.

Req: GET /values?readout=Tmax&item= N=c1c2c(-c3ccccc3)c(-c3ccccc3)n(Cc3ccccc3)c2ncn1[C@H]1CC[C@H](O)CC1
Resp: 6

###

- method: Pharmacokinetics in tumor-bearing KPC mice after 25 mg/kg single or multiple dose oral gavage
- Assay type: in vivo
- experimental_context: KPC, mouse; spleen; single PO dose 25 mg/kg
attribute_measured: Cmax (ng/mL)
Hi! Could you send only the number? It should be in ng/mL, unit omitted.

Req: Returns the measured Cmax for the input molecule. Input: N=c1c2c(-c3ccccc3)c(-c3ccccc3)n(Cc3ccccc3)c2ncn1[C@H]1CC[C@H](O)CC1
Resp: 25000

###

- method: Pharmacokinetics in tumor-bearing KPC mice after 25 mg/kg single or multiple dose oral gavage
- Assay type: in vivo
- experimental_context: KPC, mouse; plasma; single PO dose 25 mg/kg
attribute_measured: Cmax (ng/mL)
The reply should contain only the number, in ng/mL.

Req: Recorded Cmax of N=c1c2c(-c3ccccc3)c(-c3ccccc3)n(Cc3ccccc3)c2ncn1[C@H]1CC[C@H](O)CC1 [metarrestin] , please.
Resp: 810

###

- method: Pharmacokinetics in tumor-bearing KPC mice after 25 mg/kg single or multiple dose oral gavage
- Type: in vivo
- experimental_context: KPC, mouse; spleen/plasma; single PO dose 25 mg/kg; read-out: AUC0–24h ratio (tissue/plasma)
attribute_measured: Kp
Give the value as a plain number.

Req: # lookup: Kp of N=c1c2c(-c3ccccc3)c(-c3ccccc3)n(Cc3ccccc3)c2ncn1[C@H]1CC[C@H](O)CC1 [metarrestin]
Resp: 33

###

- method: Pharmacokinetics in C57BL/6 mice after single IV and PO administration
- Assay type: in vivo
- experimental_context: C57BL/6, mouse; plasma; 3 mg/kg IV single dose; read-out: CLp (plasma clearance)
attribute_measured: clearance (mL/min/kg)
State the answer as a number, implicitly in mL/min/kg.

Req: // lookup clearance for N=c1c2c(-c3ccccc3)c(-c3ccccc3)n(Cc3ccccc3)c2ncn1[C@H]1CC[C@H](O)CC1 [metarrestin]
Resp: 48

###

- method: Pharmacokinetics in tumor-bearing KPC mice after 25 mg/kg single or multiple dose oral gavage
- Type: in vivo
- experimental_context: KPC, mouse, pancreatic tumor, po, 25 mg/kg/day, tumor; day 14, multiple PO doses 25 mg/kg/day; read-out: AUC0–48h
attribute_measured: AUC(0-t)
Remember to put the unit after the number in your answer.

Req: Could you share which AUC(0-t) value was measured for N=c1c2c(-c3ccccc3)c(-c3ccccc3)n(Cc3ccccc3)c2ncn1[C@H]1CC[C@H](O)CC1 ?
Resp: 1810 µg·h/mL

###

- method: Pharmacokinetics in tumor-bearing KPC mice after 25 mg/kg single or multiple dose oral gavage
- Format: in vivo
- experimental_context: KPC, mouse, plasma, po, 25 mg/kg, plasma; single PO dose 25 mg/kg; read-out: AUC0–24h
attribute_measured: AUC(0-t) (ng·h/mL)
Just the number please, in ng·h/mL, no unit attached.

Req: Which AUC(0-t) is listed for N=c1c2c(-c3ccccc3)c(-c3ccccc3)n(Cc3ccccc3)c2ncn1[C@H]1CC[C@H](O)CC1 ?
Resp: 12100

###

- method: Pharmacokinetics in C57BL/6 mice after single IV and PO administration
- Format: in vivo
- experimental_context: C57BL/6, mouse; plasma; 10 mg/kg PO single dose; read-out: AUC0–24h
attribute_measured: AUC(0-t) (ng·h/mL)
Express your answer in ng·h/mL, writing the number without its unit.

Req: Quick check: AUC(0-t) of N=c1c2c(-c3ccccc3)c(-c3ccccc3)n(Cc3ccccc3)c2ncn1[C@H]1CC[C@H](O)CC1 ?
Resp: 4520

###

- method: Pharmacokinetics in tumor-bearing KPC mice after 25 mg/kg single or multiple dose oral gavage
- Type: in vivo
- experimental_context: KPC, mouse, spleen, po, 25 mg/kg, spleen; single PO dose 25 mg/kg; read-out: AUC0–24h
attribute_measured: AUC(0-t) (µg·h/mL)
Kindly provide the numeric value in µg·h/mL only, without the unit symbol.

Req: So what's the measured AUC(0-t) for this one? N=c1c2c(-c3ccccc3)c(-c3ccccc3)n(Cc3ccccc3)c2ncn1[C@H]1CC[C@H](O)CC1 [metarrestin]
Resp: 396

###

- method: Steady-state PK in KPC mice fed metarrestin-infused chow
- Type: in vivo
- experimental_context: KPC, mouse, liver, oral, 10 mg/kg/day, liver/plasma; day 10, chow, target dose 10 mg/kg/day; read-out: AUC0-24hr Ratio (Tissue/Plasma)
attribute_measured: Kp

Req: Fill in the blank: the reported Kp of N=c1c2c(-c3ccccc3)c(-c3ccccc3)n(Cc3ccccc3)c2ncn1[C@H]1CC[C@H](O)CC1 is ____.
Resp: > 20
